Molecular target: Gcr1 (UniProt P07261)
Sequence: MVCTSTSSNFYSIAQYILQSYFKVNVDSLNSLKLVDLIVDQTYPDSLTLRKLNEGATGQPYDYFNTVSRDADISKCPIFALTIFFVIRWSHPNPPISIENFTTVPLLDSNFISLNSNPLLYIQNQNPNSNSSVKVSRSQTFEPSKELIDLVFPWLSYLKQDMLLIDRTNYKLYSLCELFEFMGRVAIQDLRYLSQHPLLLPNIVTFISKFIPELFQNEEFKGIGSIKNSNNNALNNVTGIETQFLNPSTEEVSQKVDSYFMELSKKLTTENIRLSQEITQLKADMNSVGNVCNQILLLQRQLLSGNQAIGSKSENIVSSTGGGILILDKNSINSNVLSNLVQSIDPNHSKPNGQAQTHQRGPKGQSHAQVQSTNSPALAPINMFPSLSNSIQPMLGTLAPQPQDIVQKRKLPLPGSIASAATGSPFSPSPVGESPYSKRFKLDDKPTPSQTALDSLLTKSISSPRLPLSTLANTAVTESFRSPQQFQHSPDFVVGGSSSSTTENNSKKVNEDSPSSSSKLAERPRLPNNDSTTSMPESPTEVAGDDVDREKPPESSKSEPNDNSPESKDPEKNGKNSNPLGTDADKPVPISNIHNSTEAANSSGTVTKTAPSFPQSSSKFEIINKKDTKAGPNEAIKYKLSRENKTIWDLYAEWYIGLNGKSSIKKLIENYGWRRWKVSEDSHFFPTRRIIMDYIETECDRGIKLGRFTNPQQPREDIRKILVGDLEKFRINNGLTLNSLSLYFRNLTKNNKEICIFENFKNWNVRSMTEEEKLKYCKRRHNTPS
Experiment: PBM E-score (8-mer binding enrichment) (E-score (-0.5 to 0.5)); higher = stronger / more preferred TF binding
Conditions: protein concentration: 100 nM; construct: GST-full length
In all, about 33,000 sequences were measured (“E-score (-0.5 to 0.5)”: median about -0.011, highest 2% from about 0.28 on). The sample holds the highest values, similar sequences and a random draw of the others, so the mix is not that of the screen.
Would you mind labelling by PBM E-score? At or over -0.02 is fulfilled, under is not fulfilled.

CGCGTCTC fulfilled
GGGGAGCA not fulfilled

Exercise: Identify whether the reported PBM E-score of the following sequence is -0.02 or greater: `CTAGTGGC`
Key: fulfilled

Exercise: Identify whether the reported PBM E-score of the following sequence is -0.02 or greater: `GACCCCCC`
Key: not fulfilled

Exercise: Identify whether the reported PBM E-score of the following sequence is -0.02 or greater: `ATAGTGGC`
Key: fulfilled
